Quick list: IC50 per entry.
system tested: CDK4 (Homo sapiens)
test protocol: biochemical
condition: read-out: CDK4 SPA (Ex. C.1): pIC50 values (converted)
measured metric: IC50 (nM)

compound	measured metric	units text	measured number
COc1cc(-c2nc3c(=O)n(C)c(=O)nc-3n(C(C)C)n2)cc(OC)c1OCCN1CCN(C)CC1 [Compound 85]	IC50	nM	322
CC(C)n1nc(-c2ccc(OCCN3CCCCC3)cc2)nc2c(=O)n(C)c(=O)nc1-2 [Compound 94]	IC50	nM	173
CC(C)n1nc(-c2ccc(OCCN3CCNCC3)c(Cl)c2)nc2c(=O)n(C)c(=O)nc1-2 [Compound 104]	IC50	nM	128
COc1cc(-c2nc3c(=O)n(C)c(=O)nc-3n(C3CCNCC3)n2)ccc1OCCN1CCCCC1 [Compound 152]	IC50	nM	187

---

system tested: AKT3 (Homo sapiens)
test protocol: biochemical
condition: read-out: AKT3 pep. (Ex. C.3): pIC50 values (converted)

molecule	IC50, nM
CC(C)n1nc(-c2ccc(CN3CCN(S(=O)(=O)N(C)C)CC3)cc2)nc2c(=O)n(C)c(=O)nc1-2 [Compound 103]	129
CC(C)n1nc(-c2ccc(OCCN3CCNCC3)cc2)nc2c(=O)n(C)c(=O)nc1-2 [Compound 82]	339
CC(C)n1nc(-c2ccc(OCCN3CCN(S(=O)(=O)N(C)C)CC3)cc2)nc2c(=O)n(C)c(=O)nc1-2 [Compound 79]	282
CC(C)n1nc(-c2ccc(OCCN3CCCCC3)cc2)nc2c(=O)n(C)c(=O)nc1-2 [Compound 94]	165

---

system tested: CDC25B (Homo sapiens, UniProt P30305)
Sequence (P30305 1-580): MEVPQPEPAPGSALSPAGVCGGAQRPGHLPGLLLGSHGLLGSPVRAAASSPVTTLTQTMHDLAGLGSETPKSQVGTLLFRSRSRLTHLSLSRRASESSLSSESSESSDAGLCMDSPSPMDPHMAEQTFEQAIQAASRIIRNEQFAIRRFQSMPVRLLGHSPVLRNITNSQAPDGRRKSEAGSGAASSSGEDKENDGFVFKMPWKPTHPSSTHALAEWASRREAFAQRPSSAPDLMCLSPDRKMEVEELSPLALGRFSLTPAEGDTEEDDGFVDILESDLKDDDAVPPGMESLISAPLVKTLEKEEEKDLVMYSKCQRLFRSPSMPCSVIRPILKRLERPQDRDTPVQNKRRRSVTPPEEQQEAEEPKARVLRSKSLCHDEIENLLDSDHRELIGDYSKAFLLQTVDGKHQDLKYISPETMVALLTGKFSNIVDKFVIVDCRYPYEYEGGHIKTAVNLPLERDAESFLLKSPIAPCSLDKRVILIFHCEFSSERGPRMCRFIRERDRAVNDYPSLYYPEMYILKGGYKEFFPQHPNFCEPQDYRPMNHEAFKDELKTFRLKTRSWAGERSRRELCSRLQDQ
test protocol: biochemical
condition: CDC25B WT (Ex. C.5): pIC50 values
measured metric: IC50

compound	result
Cn1c(=O)nc2n(C3CCNCC3)nc(-c3ccc(CCCN4CCCCC4)cc3)nc-2c1=O [Compound 155]	36.9 nM
CC(C)n1nc(-c2ccc(CNCCc3cccnc3)cc2)nc2c(=O)n(C)c(=O)nc1-2 [Compound 93]	49.1 nM
COCCNCc1ccc(-c2nc3c(=O)n(C)c(=O)nc-3n(C(C)C)n2)cc1 [Compound 100]	49.9 nM
CC(C)n1nc(-c2ccc(CN3CCN(S(N)(=O)=O)CC3)cc2)nc2c(=O)n(C)c(=O)nc1-2 [Compound 102]	36.5 nM
CC(C)n1nc(-c2ccc(OCCN)cc2)nc2c(=O)n(C)c(=O)nc1-2 [Compound 101]	53.5 nM
CC(C)n1nc(-c2ccc(OS(=O)(=O)N(C)C)cc2)nc2c(=O)n(C)c(=O)nc1-2 [Compound 87]	48.3 nM
CC(C)n1nc(-c2ccc(CN(C)CCO)cc2)nc2c(=O)n(C)c(=O)nc1-2 [Compound 111]	31 nM
CC(C)n1nc(-c2ccc(OCCCN3CCOCC3)cc2)nc2c(=O)n(C)c(=O)nc1-2 [Compound 84]	38.3 nM

---

system tested: CDK4 (Homo sapiens, UniProt P11802)
Sequence (P11802 whole entry, species assumed): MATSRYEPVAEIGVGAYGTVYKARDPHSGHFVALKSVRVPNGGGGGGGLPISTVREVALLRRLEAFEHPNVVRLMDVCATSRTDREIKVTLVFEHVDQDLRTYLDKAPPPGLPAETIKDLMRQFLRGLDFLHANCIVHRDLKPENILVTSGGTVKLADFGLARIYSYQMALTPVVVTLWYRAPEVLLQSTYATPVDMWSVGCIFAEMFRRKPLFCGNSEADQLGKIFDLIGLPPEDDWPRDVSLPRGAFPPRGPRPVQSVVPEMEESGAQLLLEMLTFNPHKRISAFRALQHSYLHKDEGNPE
Sequence (P24385 whole entry partner, species assumed): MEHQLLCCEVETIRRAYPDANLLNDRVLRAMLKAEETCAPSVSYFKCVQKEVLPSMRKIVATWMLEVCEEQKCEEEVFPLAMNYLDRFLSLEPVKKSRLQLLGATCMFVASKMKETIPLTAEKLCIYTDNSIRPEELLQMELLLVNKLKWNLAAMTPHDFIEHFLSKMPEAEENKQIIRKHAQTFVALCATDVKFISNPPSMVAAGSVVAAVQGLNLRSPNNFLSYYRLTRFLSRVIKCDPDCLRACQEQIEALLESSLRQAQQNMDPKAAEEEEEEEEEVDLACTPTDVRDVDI
test protocol: biochemical
condition: read-out: CDK4 SPA (Ex. C.1): pIC50 values (converted)
Quick list: IC50 per entry.
measured metric: IC50 (nM)

compound	measured number
COc1cc(-c2nc3c(=O)n(C)c(=O)nc-3n(C(C)C)n2)cc(OC)c1OCCN1CCN(S(N)(=O)=O)CC1	205
CC(C)n1nc(-c2ccc(OCCN3CCN(C)CC3)cc2)nc2c(=O)n(C)c(=O)nc1-2	164
CC(C)n1nc(-c2ccc(OCCN3CCNCC3)cc2)nc2c(=O)n(C)c(=O)nc1-2	300
CC(C)n1nc(-c2ccc(CNC3CCN(S(=O)(=O)N(C)C)CC3)cc2)nc2c(=O)n(C)c(=O)nc1-2	141
COc1cc(-c2nc3c(=O)n(C)c(=O)nc-3n(C(C)C)n2)cc(OC)c1OS(=O)(=O)N(C)C	272
CC(C)n1nc(-c2ccc(OCCN(C)S(=O)(=O)N(C)C)cc2)nc2c(=O)n(C)c(=O)nc1-2	321
CC(C)n1nc(-c2ccc(OCCCN3CCCCC3)cc2)nc2c(=O)n(C)c(=O)nc1-2	194
CC(C)n1nc(-c2ccc(CN(C)C3CCN(S(=O)(=O)N(C)C)CC3)cc2)nc2c(=O)n(C)c(=O)nc1-2	151
COc1cc(-c2nc3c(=O)n(C)c(=O)nc-3n(C(C)C)n2)cc(OC)c1OCCN1CCCCC1 [Compound 77]	293
COc1cc(-c2nc3c(=O)n(C)c(=O)nc-3n(C(C)C)n2)ccc1OCCN1CCCCC1	513
CC(C)n1nc(-c2ccc(CN3CCN(S(=O)(=O)N(C)C)CC3)cc2)nc2c(=O)n(C)c(=O)nc1-2	357
COc1cc(-c2nc3c(=O)n(C)c(=O)nc-3n(C(C)C)n2)cc(OC)c1OCCN1CCN(C(=O)OC(C)(C)C)CC1	506
CC(C)n1nc(-c2ccc(OCCN3CCN(C(=O)OC(C)(C)C)CC3)cc2)nc2c(=O)n(C)c(=O)nc1-2	372
Cn1c(=O)nc2n(C3CCCC3)nc(-c3ccc(CN4CCNCC4)cc3)nc-2c1=O	369
COc1cc(-c2nc3c(=O)n(C)c(=O)nc-3n(C(C)C)n2)cc(OC)c1OCCN1CCCCC1 [Compound 106]	142
CC(C)n1nc(-c2ccc(OCCN3CCN(S(=O)(=O)N(C)C)CC3)cc2)nc2c(=O)n(C)c(=O)nc1-2	404
CC(C)n1nc(-c2ccc(OCCN3CCCCC3)c(Cl)c2)nc2c(=O)n(C)c(=O)nc1-2	267
COc1cc(-c2nc3c(=O)n(C)c(=O)nc-3n(C(C)C)n2)cc(OC)c1OCCN(C)C1CCNCC1	153
CC(C)n1nc(-c2ccc(OCCNS(=O)(=O)N(C)C)cc2)nc2c(=O)n(C)c(=O)nc1-2	166
CC(C)n1nc(-c2ccc(CNC3CCNCC3)cc2)nc2c(=O)n(C)c(=O)nc1-2	200

---

system tested: AKT3 (Homo sapiens, UniProt Q9Y243)
Sequence (Q9Y243 whole entry, species assumed): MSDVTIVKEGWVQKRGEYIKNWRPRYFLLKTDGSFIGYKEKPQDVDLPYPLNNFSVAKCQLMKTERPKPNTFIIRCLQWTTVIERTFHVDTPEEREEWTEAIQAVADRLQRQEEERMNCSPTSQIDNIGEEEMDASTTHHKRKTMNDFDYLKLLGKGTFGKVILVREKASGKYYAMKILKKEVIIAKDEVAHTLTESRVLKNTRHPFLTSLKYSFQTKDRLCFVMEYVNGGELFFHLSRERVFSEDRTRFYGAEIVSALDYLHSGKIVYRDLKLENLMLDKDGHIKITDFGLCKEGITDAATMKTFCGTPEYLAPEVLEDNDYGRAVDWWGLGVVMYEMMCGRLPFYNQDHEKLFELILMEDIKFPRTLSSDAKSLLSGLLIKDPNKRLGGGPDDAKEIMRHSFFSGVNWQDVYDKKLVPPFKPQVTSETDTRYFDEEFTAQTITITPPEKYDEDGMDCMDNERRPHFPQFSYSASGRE
test protocol: biochemical
condition: read-out: AKT3 pep. (Ex. C.3): pIC50 values (converted)

smiles code	units text	IC50
CC(C)n1nc(-c2ccc(OCCN(C)S(=O)(=O)N(C)C)cc2)nc2c(=O)n(C)c(=O)nc1-2	nM	190
CC(C)n1nc(-c2ccc(CN(C)C3CCN(S(=O)(=O)N(C)C)CC3)cc2)nc2c(=O)n(C)c(=O)nc1-2	nM	184
COc1cc(-c2nc3c(=O)n(C)c(=O)nc-3n(C(C)C)n2)cc(OC)c1OCCN(C)C1CCNCC1	nM	138
COc1cc(-c2nc3c(=O)n(C)c(=O)nc-3n(C(C)C)n2)cc(OC)c1OCCN1CCN(S(N)(=O)=O)CC1	nM	175

---

Quick list: melting point per entry.

smiles code	melting point
Cn1c(=O)nc2n(C3CCNCC3)nc(-c3ccccc3)nc-2c1=O	> 250 °C
Cn1nc(-c2ccccc2)nc2c(=O)n(C3CCN(C(=O)OC(C)(C)C)CC3)c(=O)nc1-2	> 250 °C
COc1cc(-c2nc3c(=O)n(C)c(=O)nc-3n(C3CCCC3)n2)cc(OC)c1OCCN1CCOCC1	187.5 to 209 °C

---

system tested: UniProt Q9Y243
test protocol: biochemical
condition: AKT3 pep. (Ex. C.3): pIC50 values

molecule	units text	IC50
CC(C)n1nc(-c2ccc(CNCCc3cccnc3)cc2)nc2c(=O)n(C)c(=O)nc1-2 [Compound 93]	nM	279
CC(C)n1nc(-c2ccc(OCCN3CCOCC3)c(Cl)c2)nc2c(=O)n(C)c(=O)nc1-2 [Compound 74]	nM	111
Cn1c(=O)nc2n(C3CCNCC3)nc(-c3ccc(CCCN4CCCCC4)cc3)nc-2c1=O [Compound 155]	nM	232
